Target: T1, 4H3120-AA
T1 chain: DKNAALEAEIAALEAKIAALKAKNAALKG
Test: two-hybrid library CCmax;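 also: natural log of median RNA to DNA barcode read ratio; higher means stronger binding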
Conditions: mean of both orientations
# interaction score >= -0.6 gives Criterion met, anything below gives Criterion not met

These recorded examples may help you get a feel for the data.
DKIAALKAENAALEAKIAALEAKIAALEG [4H2725-AA] = Criterion not met
DENAALEAKNAALKAEIAALEAKIAALKG [4H1478-AA] = Criterion not met
DENAALKAEIAALEAKNAALKAKIAALEG [4H1597-AA] = Criterion not met
DKIAALEAENAALKAEIAALKAKIAALEG [4H2253-AA] = Criterion not met
DKIAALEAEIAALEAKNAALKAKIAALEG [4H2109-AA] = Criterion met

Query: Could you tell me if the measured interaction score of DKIAALKAEIAALKAENAALKAEIAALEG [4H2649-AA] reaches -0.6 or more?
Result: Criterion not met

Query: Determine whether measured interaction score meets or exceeds -0.6 for DENAALKAEIAALEAKIAALKAENAALEG [4H1579-AA]
Result: Criterion met
